Target: Adenosine receptor A1 (Homo sapiens)
Assay: Displacement of [3H]CCPA from recombinant human adenosine A1 receptor expressed in CHO cells at 1 uM relative to control
Format: cell-based
Assign inhibition to each entry below.
# unit: % | format: bare number

Lookup: Please give the measured inhibition for this compound: `Cn1c(=O)c2c(nc3n2CCCCN3Cc2ccc(Cl)cc2)n(C)c1=O`
Found: 13

Lookup: Looking for the measured inhibition of `Cn1c(=O)c2c(nc3n2CCCCN3Cc2ccccc2F)n(C)c1=O` , can you help?
Found: 11

Lookup: Report inhibition for `Cn1c(=O)c2c(nc3n2CCCCN3Cc2ccccc2Cl)n(C)c1=O` please.
Found: 10

Lookup: Look up inhibition for this compound: `Cn1c(=O)c2c(nc3n2CCCCN3Cc2ccc(Cl)cc2Cl)n(C)c1=O`
Found: 16

Lookup: Query: inhibition; subject: `Cn1c(=O)c2c(nc3n2CCN3Cc2ccc(Cl)cc2)n(C)c1=O`
Found: 23

Lookup: inhibition for `Cn1c(=O)c2c(nc3n2CCN3Cc2ccc(F)c(Br)c2)n(C)c1=O` ?
Found: 6
